Cited source: patent US11787766B2

Hi! I'm sharing some IC50 results obtained with PD-L1 (Homo sapiens (Human)).
Sequence (Q9NZQ7 19-238): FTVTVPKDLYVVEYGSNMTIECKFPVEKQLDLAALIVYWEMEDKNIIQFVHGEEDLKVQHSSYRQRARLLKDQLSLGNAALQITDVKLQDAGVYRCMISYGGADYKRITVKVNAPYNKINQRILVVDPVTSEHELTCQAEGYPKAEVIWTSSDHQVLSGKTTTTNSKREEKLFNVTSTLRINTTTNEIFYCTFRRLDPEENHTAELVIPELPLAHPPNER

Recorded results for 5 compounds are shown here.
compound | result
Cc1c(COc2ccc3[nH]c(CO)cc3n2)cccc1-c1cccc(COc2ccc3[nH]c(CO)cc3n2)c1C | > 1000 nM
COc1nc(OCc2cccc(-c3cccc(COc4ccc(CN5CC[C@H](O)C5)c(OC)n4)c3Cl)c2Cl)ccc1CN1CC[C@H](O)C1 | < 10 nM
COc1nc(OCc2cccc(-c3cccc(COc4ccc(CN5C[C@@H](O)C[C@H]5C(=O)O)c(OC)n4)c3C#N)c2C)ccc1CN1C[C@@H](O)C[C@H]1C(=O)O | < 10 nM
COc1nc(OCc2cccc(-c3cccc(COc4ccc(CNCC(N)C(F)(F)F)c(OC)n4)c3Cl)c2Cl)ccc1CNCC(N)C(F)(F)F (stereo not drawn) | 10 to 100 nM
COc1nc(OCc2cccc(-c3cccc(COc4ccc(CN5CC(NC(C)=O)C5)c(OC)n4)c3Cl)c2Cl)ccc1CN1CC(NC(C)=O)C1 | < 10 nM

Enquiry: Could you share which IC50 value was measured for CC(=O)NCCNCC(=O)Nc1cnn(Cc2cccc(-c3cccc(Cn4cc(NC(=O)CNCCNC(C)=O)cn4)c3C)c2C)c1 ?
Return: > 1000 nM
